tested-on: T1, MDM2 (res 2-125) (UniProt Q00987 2-125)
T1 construct: range 2-125; Titrant in the fluorescence anisotropy experiments
assay-comment: fluorescence anisotropy
pKd: −log10 of the molar value. *1 amine or outer side, *2 acyl side, *3 side chain or, on linkers, in order; H or OH if unused. Bridges are numbered along the chain shown (N, C = ends). Where no end group is shown, it is not given here. THME(IAc3) = trishydroxymethylethane trisiodoacetate, CC(COC(=O)C[*:1])(COC(=O)C[*:2])COC(=O)C[*:3]
parameter-measured: pKd

| binder | value-observed |
| --- | --- |
| SDDCVRFGWTCPTVMCG (linker 4-11-16 via THME(IAc3); also: one of two stereoisomers (HPLC peaks), not assigned, The other of two HPLC peaks of identical mass (expected stereoisomers); also called PEP48-3s1-THME(IAc3)) [PEP48-3s1 conjugated with THME(IAc3), HPLC peak / stereoisomer with affinity 1600 nM] | 5.80 |
| SDDCVRFGWTCPTVMCG (linker 4-11-16 via THME(IAc3); also: one of two stereoisomers (HPLC peaks), not assigned, One of two HPLC peaks of identical mass (expected stereoisomers); also called PEP48-3s1-THME(IAc3)) [PEP48-3s1 conjugated with THME(IAc3), HPLC peak / stereoisomer with affinity 640 nM] | 6.19 |
